Test system: MDA-MB-468 breast
Your response should consist of one outcome taken from y for active, n for inactive

Worked set:
# input What did the test return for `Cc1ccc(C(C)C)cc1NC(=O)Nc1ccc([N+](=O)[O-])cc1` ?
# output n

# input Dear colleague, could you share the recorded outcome for `O=C(Nc1cccc(-n2cc(-c3ccncc3)c(-c3ccc(O)c(Cl)c3)n2)c1)c1cccc(C(F)(F)F)c1` when you have a moment?
# output n

# input Assay result, entry `Nc1[nH]c(=O)ncc1CO` — outcome?
# output n

# input Recorded call for CO[C@@]12[C@@H]3NC3CN1C1=C(C(=O)C(N)=C(C)C1=O)[C@@H]2COC(N)=O (stereo not given in full) ?
# output y

Now for a further compound.
# input Kindly provide the recorded test outcome for the following compound: `O=c1c2ccccc2oc2ccc(OCCCCCCN3CCCCCC3)cc12`
# output n

* * *

System: MDA-MB-468 breast
Test: NCI tumour cell line growth inhibition, 48 h
Listed here: items and their measured log10 TGI.
Recorded TGI (log10, µM)

Examples with their reported log10 TGI follow.
# input Query: log10 TGI; subject: Cc1cc(C(O)CN(C)C)cc2c1ccc1cc(C(C)C)ccc12 (stereo not given)
# output 0.54

# input Would you kindly share the measured log10 TGI for `O=S(=O)(NCCCNc1nccc(-c2[nH]c(-c3ccccc3)nc2-c2ccc(F)c(O)c2)n1)c1ccc(C(F)(F)F)cc1` ?
# output 0.89

# input Need log10 TGI, item `Cc1cc(Cl)ccc1NS(=O)(=O)c1ccc(-c2cnc(C3CC3)o2)cc1`
# output 1.14

# input I am curious: what log10 TGI value has been reported for `Cc1ccc(C(C)C)cc1NC(=O)Nc1ccc([N+](=O)[O-])cc1` ?
# output 0.83

# input For `CCOc1cc(-c2ccc[nH]2)[nH]c1/C=C1\N=C(C)C(C(=O)OC)=C1C` , what is its reported log10 TGI?
# output -0.35

# input Reported log10 TGI, compound `CC(=O)Oc1ccc(/C=N/NC(N)=S)nc1` : ____
# output 1.18

Next up:
# input Record request: log10 TGI value, item CCC(CC(C)C)Nc1ccc(NC(CC)CC(C)C)cc1 (stereo not given)
# output 1.38

* * *

Tested on: MDA-MB-468 breast
In this exercise, the only acceptable responses are active, inactive

Some solved entries appear below for comparison.
# input # fetch the recorded call for `CC(=O)Oc1ccc(/C=N/NC(N)=S)nc1` here
# output inactive

# input Dear colleague, could you share the recorded outcome for `NS(=O)(=O)c1ccc(N=Nc2c(O)n(CC(=O)Nc3ccccc3)c3ccccc23)cc1` when you have a moment?
# output inactive

# input Test call for this compound, please: `Cc1cc(Cl)ccc1NS(=O)(=O)c1ccc(-c2cnc(C3CC3)o2)cc1`
# output active

# input Please state the recorded outcome for this compound: `CCOc1cc(-c2ccc[nH]2)[nH]c1/C=C1\N=C(C)C(C(=O)OC)=C1C`
# output active

Next item in the queue.
# input Test call for this compound, please: `COc1cc(NC(=O)Nc2cnc(Nc3ccc(N4CCOCC4)cc3)nc2Oc2cccc(OC)c2)cc(OC)c1`
# output inactive

* * *

System: MDA-MB-468 breast
Test: NCI tumour cell line growth inhibition, 48 h
Measured TGI by item

Example molecules with recorded TGI:
# input Requested read-out TGI, target or system MDA-MB-468 breast, entry `COc1cccc(-c2c(C#N)c(-c3ccc(Cl)cc3)nc3n[nH]c(-c4ccc(Cl)cc4)c23)c1`
# output > 100 µM

# input TGI of C=CC1CN2CCC1CC2C(O)c1ccnc2ccccc12 (stereo not drawn) on MDA-MB-468 breast?
# output > 100 µM

Now consider a different molecule.
# input Write down the reported TGI of `O=C(Nc1cccc(-n2cc(-c3ccncc3)c(-c3ccc(O)c(Cl)c3)n2)c1)c1cccc(C(F)(F)F)c1` , test system: MDA-MB-468 breast.
# output > 100 µM
